Origin of values: patent US20060029603A1

Reported kon values are given for each entry in this list.
# TARGET_OF_ASSAY: T1, GST-human NOGO-A56 (human, UniProt P08515 1-218 = GST)
# T1 construct: GST-tagged fusion expressed in E. coli BL21 and purified on glutathione-sepharose; coated on ELISA plates or amine-coupled to a CM5 chip; also called hNOGO; recombinant human NOGO
# ASSAY_SUMMARY: SPR (Biacore 3000), GST-human NOGO-A56 on CM5, antibody as analyte; single experiment
Numbers only; they are read as M⁻¹ s⁻¹.

• H6L13 (antibody, human IgG1, kappa, V domains shown, Humanised 2A10; Human gamma1 mutated constant region and human kappa; also called H6L13 FL) VH: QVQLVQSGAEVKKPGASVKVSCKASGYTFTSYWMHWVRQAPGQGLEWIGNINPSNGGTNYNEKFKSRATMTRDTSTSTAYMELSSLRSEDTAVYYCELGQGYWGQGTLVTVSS VL: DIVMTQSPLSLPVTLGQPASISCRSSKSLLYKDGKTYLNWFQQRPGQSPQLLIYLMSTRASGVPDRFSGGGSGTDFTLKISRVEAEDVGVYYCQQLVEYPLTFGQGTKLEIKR = 2.95e+06

Request: Request the reported kon associated with H10L13 (antibody, V domains shown) VH: QVQLVQSGAEVKKPGASVKLSCKASGYTFTSYWMHWVKQAPGQGLEWIGNINPSNGGTNYNEKFKSRATLTVDKSTSTAYMELSSLRSEDTAVYYCELGQGYWGQGTLVTVSS VL: DIVMTQSPLSLPVTLGQPASISCRSSKSLLYKDGKTYLNWFQQRPGQSPQLLIYLMSTRASGVPDRFSGGGSGTDFTLKISRVEAEDVGVYYCQQLVEYPLTFGQGTKLEIK
Result: 1.64e+06

Request: And then H5L6 (antibody, human IgG1, kappa, V domains shown) VH: QVQLVQSGAEVKKPGASVKVSCKASGYTFTSYWMHWVRQAPGQGLEWMGNINPSNGGTNYNEKFKSRVTMTRDTSTSTAYMELSSLRSEDTAVYYCELGQGYWGQGTLVTVSS VL: DIVMTQSPLSLPVTPGEPASISCRSSKSLLYKDGKTYLNWFLQRPGQSPQLLIYLMSTRASGVPDRFSGSGSGTDFTLKISRVEAEDVGVYYCQQLVEYPLTFGGGTKVEIKR , what is it?
Result: 1.5e+06
